- TESTED TARGET: Choline O-acetyltransferase (squid)
- MEASUREMENT DESCRIPTION: Inhibition of choline acetyltransferase isolated from squid head ganglia
READOUT NAME: Ki (µM)
Quick reminder: number only, in µM, skip the unit.

- COMPOUND: "CSSCCNC(=O)CCNC(=O)C(O)C(C)(C)COP(=O)(O)OP(=O)(O)OC[C@H]1O[C@@H](n2cnc3c(N)ncnc32)[C@H](O)[C@@H]1OP(=O)(O)O (some centres not stated)"
  ENDPOINT UNIT: "µM"
  RESULT NUMBER: 2.3

Would you kindly look at the next entry?
Which Ki value belongs to Nc1c(S(=O)(=O)O)cc(Nc2ccc(Nc3nc(Nc4ccc(S(=O)(=O)O)cc4)nc(=O)[nH]3)c(S(=O)(=O)O)c2)c2c1C(=O)c1ccccc1C2=O ? 1.8

These measurements were taken from BindingDB's records for doi:10.1021/jm00144a035.
